# TEST SYSTEM: EGFR Ex19del/L792H (Homo sapiens, UniProt P00533, DEL746-750/L792H)
# Construct: expressed in transfected cells; host or cells: Ba/F3
# EXPERIMENT NOTES: Ba/F3 drug screening, Cell Titer Glo, IC50 Mut/WT
# Type: cell-based
# STUDY CONDITIONS: PACC; Ex19del/L792H; Ba/F3; 72 hours
MEASURED PARAMETER: ratio of IC50 for cells with mutant EGFR to IC50 for cells with wildtype EGFR (Mut/WT)
Reply briefly: the number, and no unit.

Known ratio of IC50 for cells with mutant EGFR to IC50 for cells with wildtype EGFR (Mut/WT) results, listed for orientation:
COc1cc2ncnc(Nc3ccc(F)c(Cl)c3)c2cc1NC(=O)/C=C/CN1CCCCC1
0.2436
CNC(=O)CN1CCC(Oc2cc3c(Nc4cccc(Cl)c4F)ncnc3cc2OC)CC1
53.47
COc1cc2ncnc(Nc3cccc(Cl)c3F)c2cc1OC(=O)N1CCN(C)C[C@H]1C
9.625

Note: attention shifts to another entry.
[Q] Which ratio of IC50 for cells with mutant EGFR to IC50 for cells with wildtype EGFR (Mut/WT) is listed for "CN(C)C/C=C/C(=O)Nc1cc2c(Nc3ccc(Cl)c(Br)c3)ncnc2cn1" ?
[A] 1.041

###

# TEST SYSTEM: EGFR G719A T790M (Homo sapiens, UniProt P00533, G719A/T790M)
# Construct: expressed in transfected cells; host or cells: Ba/F3
# EXPERIMENT NOTES: Ba/F3 drug screening, Cell Titer Glo, IC50 Mut/WT
# Type: cell-based
# STUDY CONDITIONS: T790M-like-3S, 72 hours
Friendly reminder: ratio of IC50 for cells with mutant EGFR to IC50 for cells with wildtype EGFR (Mut/WT) below 0.09 is Y, at or above is N.

C=CC(=O)Nc1cc(Nc2nccc(-n3cc(CN(C)C)c(-c4ccccc4)n3)n2)c(OC)cc1N1CCOCC1
Y
COc1cc2ncnc(Nc3cccc(Cl)c3F)c2cc1OC(=O)N1CCN(C)C[C@H]1C
N
CN(C)C/C=C/C(=O)Nc1cc2c(Nc3ccc(Cl)c(Br)c3)ncnc2cn1
N
C=CC(=O)Nc1cccc(Oc2nc(Nc3ccc(N4CCN(C)CC4)cc3)nc3ccsc23)c1
Y
C=CC(=O)N1CC[C@@H](Oc2nc(Nc3ccc(N4CCC(N5CCN(C)CC5)CC4)cc3)c(C(N)=O)nc2CC)C1
Y

[Q] Below 0.09 on ratio of IC50 for cells with mutant EGFR to IC50 for cells with wildtype EGFR (Mut/WT)? Entry "COc1cc2ncnc(Nc3ccc(F)c(Cl)c3)c2cc1NC(=O)/C=C/CN1CCCCC1"
[A] N

[Q] Below 0.09 on ratio of IC50 for cells with mutant EGFR to IC50 for cells with wildtype EGFR (Mut/WT)? Entry "C=CC(=O)Nc1cc(Nc2ncc(C(=O)OC(C)C)c(-c3cn(C)c4ccccc34)n2)c(OC)cc1N(C)CCN(C)C"
[A] N

###

Below, each entry is listed with its recorded ratio of IC50 for cells with mutant EGFR to IC50 for cells with wildtype EGFR (Mut/WT).
# TEST SYSTEM: EGFR L747_K754del insATSPE (Homo sapiens, UniProt P00533, DEL747-749/K754E)
# Construct: expressed in transfected cells; host or cells: Ba/F3 cells, retroviral pBabe-Puro vector
# EXPERIMENT NOTES: Ba/F3 drug screening, Cell Titer Glo, IC50 Mut/WT
# Type: cell-based
# STUDY CONDITIONS: T790M-like-3S, 72 hours

Known ratio of IC50 for cells with mutant EGFR to IC50 for cells with wildtype EGFR (Mut/WT) results, listed for orientation:
C=CC(=O)N1CC[C@@H](Oc2nc(Nc3ccc(N4CCC(N5CCN(C)CC5)CC4)cc3)c(C(N)=O)nc2CC)C1
0.00433
CN(C)C/C=C/C(=O)Nc1cc2c(Nc3ccc(Cl)c(Br)c3)ncnc2cn1
4.874
Cc1cc(C(=O)Nc2nc3cccc(Cl)c3n2[C@@H]2CCCCN(C(=O)/C=C/CN(C)C)C2)ccn1
0.001195
CNC(=O)CN1CCC(Oc2cc3c(Nc4cccc(Cl)c4F)ncnc3cc2OC)CC1
7.978
COc1cc2ncnc(Nc3ccc(F)c(Cl)c3)c2cc1NC(=O)/C=C/CN1CCCCC1
5.465

[Q] Which ratio of IC50 for cells with mutant EGFR to IC50 for cells with wildtype EGFR (Mut/WT) is listed for "C=CC(=O)N[C@H]1C=C(C)c2c(-c3cnc4ccccc4c3)c3c(N)ncnc3n2C1" ?
[A] 0.0004661

[Q] Which ratio of IC50 for cells with mutant EGFR to IC50 for cells with wildtype EGFR (Mut/WT) is listed for "C=CC(=O)Nc1cccc(Oc2nc(Nc3ccc(N4CCN(C)CC4)cc3)nc3ccsc23)c1" ?
[A] 0.0001357

[Q] Which ratio of IC50 for cells with mutant EGFR to IC50 for cells with wildtype EGFR (Mut/WT) is listed for "COc1cc2ncnc(Nc3cccc(Cl)c3F)c2cc1OC(=O)N1CCN(C)C[C@H]1C" ?
[A] 4.604

[Q] Which ratio of IC50 for cells with mutant EGFR to IC50 for cells with wildtype EGFR (Mut/WT) is listed for "C=CC(=O)Nc1cc(Nc2nccc(-n3cc(CN(C)C)c(-c4ccccc4)n3)n2)c(OC)cc1N1CCOCC1" ?
[A] 2.781

###

# TEST SYSTEM: EGFR S768I/V769L (Homo sapiens, UniProt P00533, S768I/V769L)
# Construct: host or cells: Ba/F3
# EXPERIMENT NOTES: Ba/F3 drug screening, Cell Titer Glo, IC50 Mut/WT
# Format: cell-based
# STUDY CONDITIONS: PACC; S768I/V769L; Ba/F3; 72 hours
Below, each entry is listed with its recorded ratio of IC50 for cells with mutant EGFR to IC50 for cells with wildtype EGFR (Mut/WT).
Reply briefly: the number, and no unit.

Known ratio of IC50 for cells with mutant EGFR to IC50 for cells with wildtype EGFR (Mut/WT) results, listed for orientation:
CN(C)C/C=C/C(=O)Nc1cc2c(Nc3ccc(Cl)c(Br)c3)ncnc2cn1
0.713
COc1cc2ncnc(Nc3cccc(Cl)c3F)c2cc1OC(=O)N1CCN(C)C[C@H]1C
0.7072
CNC(=O)CN1CCC(Oc2cc3c(Nc4cccc(Cl)c4F)ncnc3cc2OC)CC1
0.2596

Note: attention shifts to another entry.
[Q] Which ratio of IC50 for cells with mutant EGFR to IC50 for cells with wildtype EGFR (Mut/WT) is listed for "COc1cc2ncnc(Nc3ccc(F)c(Cl)c3)c2cc1NC(=O)/C=C/CN1CCCCC1" ?
[A] 0.2085

###

# TEST SYSTEM: EGFR L858R (Homo sapiens, UniProt P00533, L858R)
# Construct: expressed in transfected cells; host or cells: Ba/F3 cells, retroviral pBabe-Puro vector
# EXPERIMENT NOTES: Ba/F3 drug screening, Cell Titer Glo, IC50 Mut/WT
# Format: cell-based
# STUDY CONDITIONS: Classical-Like, 72 hours
Friendly reminder: ratio of IC50 for cells with mutant EGFR to IC50 for cells with wildtype EGFR (Mut/WT) below 0.05 is YES, at or above is NO.

[Q] Below 0.05 on ratio of IC50 for cells with mutant EGFR to IC50 for cells with wildtype EGFR (Mut/WT)? Entry "Cc1cc(C(=O)Nc2nc3cccc(Cl)c3n2[C@@H]2CCCCN(C(=O)/C=C/CN(C)C)C2)ccn1"
[A] YES

[Q] Below 0.05 on ratio of IC50 for cells with mutant EGFR to IC50 for cells with wildtype EGFR (Mut/WT)? Entry "C=CC(=O)Nc1cc(Nc2ncc(C(=O)OC(C)C)c(-c3cn(C)c4ccccc34)n2)c(OC)cc1N(C)CCN(C)C"
[A] YES

[Q] Below 0.05 on ratio of IC50 for cells with mutant EGFR to IC50 for cells with wildtype EGFR (Mut/WT)? Entry "C=CC(=O)N1CC[C@@H](Oc2nc(Nc3ccc(N4CCC(N5CCN(C)CC5)CC4)cc3)c(C(N)=O)nc2CC)C1"
[A] NO

[Q] Below 0.05 on ratio of IC50 for cells with mutant EGFR to IC50 for cells with wildtype EGFR (Mut/WT)? Entry "CNC(=O)CN1CCC(Oc2cc3c(Nc4cccc(Cl)c4F)ncnc3cc2OC)CC1"
[A] YES

[Q] Below 0.05 on ratio of IC50 for cells with mutant EGFR to IC50 for cells with wildtype EGFR (Mut/WT)? Entry "C=CC(=O)Nc1cccc(Oc2nc(Nc3ccc(N4CCN(C)CC4)cc3)nc3ccsc23)c1"
[A] YES

[Q] Below 0.05 on ratio of IC50 for cells with mutant EGFR to IC50 for cells with wildtype EGFR (Mut/WT)? Entry "COc1cc2ncnc(Nc3cccc(Cl)c3F)c2cc1OC(=O)N1CCN(C)C[C@H]1C"
[A] YES

[Q] Below 0.05 on ratio of IC50 for cells with mutant EGFR to IC50 for cells with wildtype EGFR (Mut/WT)? Entry "CN(C)C/C=C/C(=O)Nc1cc2c(Nc3ccc(Cl)c(Br)c3)ncnc2cn1"
[A] NO

[Q] Below 0.05 on ratio of IC50 for cells with mutant EGFR to IC50 for cells with wildtype EGFR (Mut/WT)? Entry "C=CC(=O)Nc1cc(Nc2nccc(-n3cc(CN(C)C)c(-c4ccccc4)n3)n2)c(OC)cc1N1CCOCC1"
[A] YES

[Q] Below 0.05 on ratio of IC50 for cells with mutant EGFR to IC50 for cells with wildtype EGFR (Mut/WT)? Entry "C=CC(=O)Nc1cc(Nc2nccc(-c3c[nH]c4ccccc34)n2)c(OC)cc1N(C)CCN(C)C"
[A] NO

[Q] Below 0.05 on ratio of IC50 for cells with mutant EGFR to IC50 for cells with wildtype EGFR (Mut/WT)? Entry "COc1cc2ncnc(Nc3ccc(F)c(Cl)c3)c2cc1NC(=O)/C=C/CN1CCCCC1"
[A] YES

[Q] Below 0.05 on ratio of IC50 for cells with mutant EGFR to IC50 for cells with wildtype EGFR (Mut/WT)? Entry "C=CC(=O)N[C@H]1C=C(C)c2c(-c3cnc4ccccc4c3)c3c(N)ncnc3n2C1"
[A] YES
